Origin of the recorded values: patent US20240207427A1

# Tested on: breast cancer cells (MDA-MB-231)
# assay-summary: In vitro potency (CellTiter-Glo, 96 h), MDA-MB-231
# Type: cell-based
# measurement-setup: Homo sapiens, MDA-MB-231, 96 h, read-out: MDAMB231 IC50, Table 29; CPT free drugs; breast cancer cells MDA-MB-231; 96 h, CellTiter-Glo
value-type: IC50 (nM)
Report the figure in nM without appending any unit label.

// known answers, use as guide
(Q) State its IC50 for this compound: CC[C@@]1(O)C(=O)OCc2c1cc1n(c2=O)Cc2c-1nc1cc3c(cc1c2CNC[C@H](O)CN1CCCCC1)OCO3 [Compound 7aa]
(A) 228

(Q) Return the recorded IC50 value; entry: CC[C@@]1(O)C(=O)OCc2c1cc1n(c2=O)Cc2c-1nc1cc3c(cc1c2CN1CCN(CCN)CC1)OCO3 [Compound 8c]
(A) 57

(Q) For the compound CC[C@@]1(O)C(=O)OCc2c1cc1n(c2=O)Cc2c-1nc1cc3c(cc1c2CNCCCN1CCNCC1)OCO3 [Compound 8d] , report IC50.
(A) 25

Others:
(Q) Specify IC50 for CC[C@@]1(O)C(=O)OCc2c1cc1n(c2=O)Cc2c-1nc1cc3c(cc1c2CNCC(O)CN1CCOCC1)OCO3 (stereo partly shown) [Compound 7i] and stop.
(A) 183

====

# Test system: Ls174T cells
# assay-summary: In vitro potency (CellTiter-Glo, 96 h), Ls174T
# Assay type: cell-based
# measurement-setup: Homo sapiens, LS174T; camptothecin free drug, 96 h; read-out: Ls174T IC50
# Method: In vitro potency was assessed on multiple cancer cell lines. All cell lines were authenticated by STR profiling at IDEXX Bioresearch and cultured for no more than 2 months after resuscitation. […] After 96 hours, growth inhibition was assessed by CellTiterGlo® (Promega, Madison, WI) and luminescence was measured on a plate reader. In Table 7, IC50 values for ADCs are given in ng/mL. Cell viability was determined by CellTiter-Glo staining after 96 h exposure to ADC. ND=Not Determined. […]
The reader will find reported pIC50 values listed item by item below.
Units for pIC50: none; it is -log10 of a concentration expressed in mol/L.

Here is how some molecules turned out for pIC50.
(Q) Determine from records and report pIC50 for CC[C@@]1(O)C(=O)OCc2c1cc1n(c2=O)Cc2c-1nc1cc3c(cc1c2CNCCN1CCN(C(=O)OC(C)(C)C)CC1)OCO3 [Compound 7f]
(A) 7.16

(Q) For the molecule CC[C@@]1(O)C(=O)OCc2c1cc1n(c2=O)Cc2c-1nc1cc3c(cc1c2CN1CCN(CCNC(=O)OC(C)(C)C)CC1)OCO3 [Compound 7af] , report pIC50.
(A) 7.10

Further cases:
(Q) Respond only with pIC50 recorded for CC[C@@]1(O)C(=O)OCc2c1cc1n(c2=O)Cc2c-1nc1cc3c(cc1c2CNCCCN(C)C(=O)OC(C)(C)C)OCO3 [Compound 7a]
(A) 7.13

(Q) Report pIC50 for CC[C@@]1(O)C(=O)OCc2c1cc1n(c2=O)Cc2c-1nc1cc3c(cc1c2CN1CCC(NC(=O)OC(C)(C)C)CC1)OCO3 [Compound 7y]
(A) 7.77

(Q) Kindly indicate its recorded pIC50. Item: CC[C@@]1(O)C(=O)OCc2c1cc1n(c2=O)Cc2c-1nc1cc3c(cc1c2CNC1CCN(C(=O)OC(C)(C)C)CC1)OCO3 [Compound 7q]
(A) 7.62

(Q) Report pIC50 for CC[C@@]1(O)C(=O)OCc2c1cc1n(c2=O)Cc2c-1nc1cc3c(cc1c2CNCCCN1CCN(C(=O)OC(C)(C)C)CC1)OCO3 [Compound 7m]
(A) 6.65
